Reference for the values: paper PMC12130801

Tested on: BxPC-3
Assay Protocol: cells
Set-up: 5-day MTT proliferation assay, absorbance 570 nm, per cent viability of untreated cells, IC50 from XLfit
Condition Parameters: Homo sapiens, BXPC-3, 120 h; 5-day MTT proliferation; read-out: PC14586 MTT IC50
Measured Metric: IC50 (nM)
Reply numerically in nM, unit not repeated.

input: Query (molecule): CNC(=O)c1ccc(NCC#Cc2cc3c(N[C@@H]4CCN(C)C[C@@H]4F)cccc3n2CC(F)(F)F)c(OC)c1 ; field requested: IC50
output: 330

* * *

Tested on: NUGC-3_KO
Assay Protocol: cells
Set-up: 5-day MTT proliferation assay, absorbance 570 nm, per cent viability of untreated cells, IC50 from XLfit
Condition Parameters: 120 h; 5-day MTT proliferation; read-out: PC14586 MTT IC50
Measured Metric: pIC50
Please treat pIC50 as minus the base-10 logarithm of the molar concentration.

input: # get_value(readout='pIC50', item= CNC(=O)c1ccc(NCC#Cc2cc3c(N[C@@H]4CCN(C)C[C@@H]4F)cccc3n2CC(F)(F)F)c(OC)c1 [PC14586, rezatapopt] )
output: 4.81
